Data origin, for the record: PubChem BioAssay (NCI)

Tested on: HS 578T breast
procedureText: NCI tumour cell line growth inhibition, 48 h
Listed compounds paired with reported GI50

// below: answered compounds
| compound | GI50 |
| --- | --- |
| O=c1[nH]cnc2nc(-c3ccc(N(CCCl)CCCl)cc3)[nH]c12 | 27.2 µM |
| Brc1ccc2c(c1)c(-c1nc(-c3c[nH]c4ncccc34)cs1)cn2CCCN1CCCCC1 | 2.13 µM |
| CC(=O)NS(=O)(=O)c1ccc(-n2nc(-c3ccccc3)cc2C2=CC(=O)C=CC2=O)cc1 | 22.3 µM |

# lookup: GI50 of Cn1c(O)c(N=NC(N)=S)c2ccccc21
23.4 µM

Record request: GI50 value, item O=S1(=O)CC(Br)C(Br)C1 (stereo unspecified)
5.5 µM

Which GI50 is reported for this compound? CN1N=Nc2c(C(F)(F)F)nn(-c3ccccc3)c2N(C)C1=O
> 100 µM
